experiment.notes: Caspase-3/7 induction in CHO-K1 cells by small molecules, qHTS cell viability counter screen (AID 1346979); further: nearly all actives have a fitted effect of over 35% in size
condition.context: CellTiter-Fluor fluorescence, 17 h; series mostly up to 92.4 µM
Inconclusive results are not listed. Active and inactive are the calls of the source. The call rests on the fitted dose curve; in most records, active means well fitted cell-killing curve with a large enough effect in the repeat runs; inconclusive means weak or mixed curves, or effect the other way; inactive means no such curve, though single readings can be large or run the other way.
Would you mind answering with one of these outcomes? 1 (yes) for active, 0 (no) for inactive

Solved entries:
molecule | category.label
C#CC(O)CCC (stereo unspecified) | 0 (no)
CC1=CP(=O)(c2ccccc2)CC1 (stereo unspecified) | 0 (no)

What was the test verdict on O=C1C=CC(=O)N1c1ccccc1 ?
1 (yes)

Also check c1ccc2c(c1)CCC2
0 (no)

Also check Brc1ccccc1-c1ccccc1
0 (no)

Also check Cc1cn[nH]c1
0 (no)

Also check NC1(c2ccc(-c3nc4ccn5c(=O)[nH]nc5c4cc3-c3ccccc3)cc2)CCC1
1 (yes)

Also check CC(C)(c1cc(Br)c(O)c(Br)c1)c1cc(Br)c(O)c(Br)c1
1 (yes)

Also check CCOB(OCC)OCC
0 (no)

Also check O=c1cccc[nH]1
0 (no)
